assay: chemical genetic growth profiling, strain panel (AID 1159580);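 note: tested at 20 µM; growth read once vehicle control cultures reached saturation at 30 °C; 1 = growth at the plate median or of vehicle wells; lower values mean less growth of the strain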; settings: S. cerevisiae deletion strains, growth OD, locus YNL322C, strain KRE1 (second series)
Screen size: about 5,500 compounds; about 2,000 (36%) were called active. Roughly 18% stayed inconclusive and do not appear here. Cut-off read from the data, not from the text of the source: active = normalized growth mostly below about 0.91 (no sharp cut-off); inconclusive = no clear call, values can overlap the other calls; inactive = mostly above about 0.92. The list shows a part of the results. Where a SMILES comes first, the peptide text is derived from it. Side-chain parts run from the residue outwards. [ ]: non-standard residue; d: D form. The star is where a group is joined. X1 = CCC(C)C(N)C1=NC(C(=O)*)CS1; Orn = NCCC[CH](N)C(=O)O
Write down one outcome, taken from active, inactive

Past entries and their recorded results:
{"columns": ["molecule", "answer label"],
 "data": [
  ["C[C@]12CCC3C(CC[C@H]4C[C@H](OS(=O)(=O)O)CC[C@]34C)C1CCC2=O (some centres not stated)", "inactive"],
  ["CCC(C)C(N)C1=NC(C(=O)NC(CC(C)C)C(=O)NC(CCC(=O)O)C(=O)NC(C(=O)NCCCCC2NC(=O)C(CC(N)=O)NC(=O)C(CC(=O)O)NC(=O)C(Cc3cnc[nH]3)NC(=O)C(Cc3ccccc3)NC(=O)C(C(C)CC)NC(=O)C(CCCN)NC2=O)C(C)CC)CS1 (stereo not drawn) (cyclo(DNK([Ile-Glu-Leu-X1])[Orn]IFH); configuration not given here)", "inactive"],
  ["CC[C@H]1OC(=O)[C@H](C)[C@@H](O[C@H]2C[C@@](C)(OC)[C@@H](O)[C@H](C)O2)[C@H](C)[C@@H](O[C@@H]2O[C@H](C)C[C@H](N(C)C)[C@H]2O)[C@](C)(O)C[C@@H](C)[C@@H]2N[C@@H](COCCOC)O[C@H]([C@H]2C)[C@]1(C)O", "inactive"],
  ["Cc1onc(-c2ccccc2Cl)c1C(=O)N[C@@H]1C(=O)N2[C@@H]1SC(C)(C)[C@@H]2C(=O)O", "inactive"],
  ["CC(=O)O[C@H]1CC[C@]2(C)C3CC(=O)[C@]4(C)C(C(C)=O)=CCC4C3CC[C@H]2C1 (some centres not stated)", "inactive"]
]}

Here is another molecule to look at.
Ask: What did the test return for NCCc1cc(O)c(O)cc1O ?
Reply: inactive

----------
Consider the following compounds and their measured normalized growth readings.
experiment: chemical genetic growth profiling, strain panel (AID 1159580); settings: S. cerevisiae deletion strains, growth OD, locus YMR307W, strain GAS1, stronger effect = lower value
Screen size: about 5,500 compounds; about 2,000 (36%) were called active. Not shown: some 18% with an inconclusive outcome. This is one part of the list.
Form rule: numeric answer, no unit written next to it.

{"columns": ["compound", "normalized growth"],
 "data": [
  ["O=C(O)c1cc(=O)c2c(Cl)cc(Cl)cc2[nH]1", 1.04]
]}

Proceeding to the next compound to report its normalized growth.
Ask: If you can, please state the reported normalized growth value of O=C(O)/C(=C/c1c(C(=O)O)[nH]c2cc(Cl)cc(Cl)c12)c1ccccc1 .
Reply: 1.01

----------
test: chemical genetic growth profiling, strain panel (AID 1159580); details: S. cerevisiae deletion strains, growth OD, locus YOR290C, strain snf2, stronger effect = lower value
The whole screen tested about 5,500 compounds, of which about 2,000 (36%) were called active. Not shown: some 18% with an inconclusive outcome. The list shows a part of the results.
Reported values of normalized growth for individual entries
Simply state the number, no unit and no words.

{"columns": ["molecule", "normalized growth"],
 "data": [
  ["C1CCC(C(CC2CCCCN2)C2CCCCC2)CC1 (centres undefined)", 0.869]
]}

Ask: Query (molecule): CC[C@H]1OC(=O)[C@H](C)[C@@H](O[C@H]2C[C@@](C)(OC)[C@@H](O)[C@H](C)O2)[C@H](C)[C@@H](O[C@@H]2O[C@H](C)C[C@H](N(C)C)[C@H]2O)[C@](C)(O)C[C@@H](C)[C@@H]2N[C@@H](COCCOC)O[C@H]([C@H]2C)[C@]1(C)O ; field requested: normalized growth
Reply: 0.981

Ask: Try the molecule CNS(=O)(=O)Cc1ccc2[nH]cc(CCN(C)C)c2c1
Reply: 1.02

Ask: Now this one: CC(=O)CC1CCCCN1 (centres undefined)
Reply: 1

Ask: Cool, now CN(C)CCc1c[nH]c2ccc(C[C@H]3COC(=O)N3)cc12
Reply: 1.01

Ask: Another molecule to look at: COc1cc2cc3c4cc(OC)c(OC)cc4cc[n+]3c(C)c2cc1OC
Reply: 0.982

Ask: Note, next up: CC1(C)C(=O)[C@@H]2C[C@@]3(O)C4=CC(=O)O[C@@H](c5ccoc5)[C@]4(C)CCC3[C@@](C)(C2=O)[C@H]1CC(=O)O (some centres undefined)
Reply: 1.01

Ask: And for O=C(O)c1cc(=O)c2cccc(O)c2[nH]1 ?
Reply: 1.06

Ask: Request: CC1(C)C=Cc2cc3ccc(=O)oc3cc2O1
Reply: 0.783

----------
assay: chemical genetic growth profiling, strain panel (AID 1159580);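 note: tested at 20 µM; growth read once vehicle control cultures reached saturation at 30 °C; 1 = growth at the plate median or of vehicle wells; lower values mean less growth of the strain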; settings: S. cerevisiae deletion strains, growth OD, locus YKL085W, strain MDH1, stronger effect = lower value
Hit rate of the full screen: of about 5,500 compounds, about 2,000 (36%) were called active. Roughly 18% stayed inconclusive and do not appear here. This is one part of the list.
assay metric: normalized growth
Just the number, please, no unit after it.

Would you please look over these solved cases?
{"columns": ["compound", "normalized growth"],
 "data": [
  ["CC1=CC(=O)C2=C(C)CC(O)C3C(C)C(=O)OC3C12 (centres undefined)", 0.992],
  ["COc1ccc2c(=O)ccoc2c1", 1.03],
  ["COc1ccc(C2C(=O)c3ccccc3C2=O)cc1", 0.983]
]}

Ask: Reported normalized growth for NC1CC1c1ccccc1 (centres undefined) : what is it?
Reply: 1.03

Ask: CN1C(=O)CCS(=O)(=O)C1c1ccc(Cl)cc1 (centres undefined) , same question.
Reply: 1.01

Ask: Subsequent entry: NC1C[C@H]1c1ccccc1 (some centres undefined)
Reply: 0.987

Ask: # repeat for CC(=O)OCC(=O)[C@@]1(O)CCC2C3CCC4=CC(=O)CC[C@]4(C)C3[C@@H](O)C[C@@]21C (some centres undefined)
Reply: 1

Ask: Record: Cc1onc(-c2ccccc2)c1C(=O)NC1C(=O)N2[C@@H]1SC(C)(C)[C@@H]2C(=O)O (some centres undefined)
Reply: 1.01

Ask: Entry O=C(O)c1cc(=O)c2cccc(O)c2[nH]1 please
Reply: 0.964

----------
assay: chemical genetic growth profiling, strain panel (AID 1159580);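 note: tested at 20 µM; growth read once vehicle control cultures reached saturation at 30 °C; 1 = growth at the plate median or of vehicle wells; lower values mean less growth of the strain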; conditions: S. cerevisiae deletion strains, growth OD, locus YOR070C, strain gyp1, stronger effect = lower value
Hit rate of the full screen: of about 5,500 compounds, about 2,000 (36%) were called active. Inconclusive results (about 18%) are left out. The list shows a part of the results.
normalized growth values by entry
Number, no unit, nothing else.

Ask: Returns the measured normalized growth for the input molecule. Input: NC1C[C@H]1c1ccccc1 (some centres not stated)
Reply: 0.992

Ask: Proceed to NC[C@H]1O[C@H](O[C@H]2C(O[C@@H]3O[C@H](CO)[C@@H](O)[C@H]3O)[C@@H](O)[C@H](N)C[C@@H]2N)[C@H](N)[C@@H](O)[C@@H]1O (some centres not stated)
Reply: 1

Ask: Note, next up: C#CC1(O)CCC2C3CCC4=CC(=O)CCC4(C)C3CCC21C (configuration not stated)
Reply: 0.992

Ask: Same question, CC1=CC2C(C(C)C)CCC(C)(O)C2CC1 (configuration not stated) this time
Reply: 0.975

Ask: Try CC(=O)OCC(=O)[C@@]1(O)CCC2C3CCC4=CC(=O)CC[C@]4(C)C3[C@@H](O)C[C@@]21C (some centres not stated) next.
Reply: 1.03

Ask: Also CN[C@@H]1[C@@H](O[C@H]2O[C@H](CO)[C@@H](N)[C@H](O)[C@H]2O)O[C@H]2C[C@@H](N)[C@H](O[C@H]3[C@H](O)[C@@H](O)[C@H](N)C[C@@H]3N)O[C@@H]2[C@@H]1O , if possible.
Reply: 1

Ask: Now consider CC[C@H]1OC(=O)[C@H](C)[C@@H](O[C@H]2C[C@@](C)(OC)[C@@H](O)[C@H](C)O2)[C@H](C)[C@@H](O[C@@H]2O[C@H](C)C[C@H](N(C)C)[C@H]2O)[C@](C)(O)C[C@@H](C)[C@@H]2N[C@@H](COCCOC)O[C@H]([C@H]2C)[C@]1(C)O .
Reply: 0.999

----------
experiment: chemical genetic growth profiling, strain panel (AID 1159580);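 note: tested at 20 µM; growth read once vehicle control cultures reached saturation at 30 °C; 1 = growth at the plate median or of vehicle wells; lower values mean less growth of the strain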; conditions: S. cerevisiae deletion strains, growth OD, locus YPR119W, strain clb2
Hit rate of the full screen: of about 5,500 compounds, about 2,000 (36%) were called active. Not shown: some 18% with an inconclusive outcome. Cut-off read from the data, not from the text of the source: active = normalized growth mostly below about 0.91 (no sharp cut-off); inconclusive = no clear call, values can overlap the other calls; inactive = mostly above about 0.92. The list shows a part of the results. *1 amine or outer side, *2 acyl side, *3 side chain or, on linkers, in order; H or OH if unused. Where a SMILES comes first, the peptide text is derived from it. Bridges are numbered along the chain shown (N, C = ends). [ ]: non-standard residue; d: D form. The star is where a group is joined. ξ: configuration not given here. ΔAla(E,3-NHCONH2) = NC(=O)N/C=C(/N)C(=O)O; X2 = NC1=NCCC(C(N[*:1])C(=O)[*:2])N1; ξβ3hOrn = NCCCC(N)CC(=O)*; Dap = NC[CH](N)C(=O)O
# valid calls are Yes = active, No = inactive; nothing else

These solved cases illustrate the format of a correct answer.
{"columns": ["compound", "answer label"],
 "data": [
  ["CC(NCCC(c1ccccc1)c1ccccc1)c1ccccc1 (stereo unspecified)", "No"],
  ["O=C(OC[C@H]1O[C@H](OC(=O)c2cc(O)c(O)c(OC(=O)c3cc(O)c(O)c(O)c3)c2)[C@H](OC(=O)c2cc(O)c(O)c(OC(=O)c3cc(O)c(O)c(O)c3)c2)[C@@H](OC(=O)c2cc(O)c(O)c(OC(=O)c3cc(O)c(O)c(O)c3)c2)[C@@H]1OC(=O)c1cc(O)c(O)c(OC(=O)c2cc(O)c(O)c(O)c2)c1)c1cc(O)c(O)c(OC(=O)c2cc(O)c(O)c(O)c2)c1", "Yes"],
  ["COC1(C)CCC2OC2(C)CCC2C1CC2(C)C (stereo unspecified)", "No"]
]}

Ask: What call does the record list for O=C(O)c1cc([N+](=O)[O-])ccc1NCCCc1ccccc1 ?
Reply: Yes

Ask: Next compound up: COc1cc2c(cc1O)CCNC2C (stereo unspecified)
Reply: No

Ask: What would you report for CO[C@H]1C[C@H](O[C@H]2[C@H](C)[C@@H](OC3O[C@H](C)C[C@H](N(C)C)[C@H]3OC(C)=O)[C@@H](C)C[C@]3(CO3)C(=O)[C@H](C)[C@@H](OC(C)=O)[C@@H](C)[C@@H](C)OC(=O)[C@@H]2C)O[C@@H](C)[C@@H]1OC(C)=O (stereo partly specified) ?
Reply: No

Ask: Request: CO[C@@]1(NC(=O)Cc2cccs2)C(=O)N2C(C(=O)O)=C(COC(N)=O)CS[C@@H]21
Reply: No

Ask: And for CC(=O)[O][Hg][c]1ccccc1 ?
Reply: Yes

Ask: // query: CCC1(CC)C(=O)C=CNC1=O
Reply: No

Ask: Next entry: COc1cc2cc3c4cc(OC)c(OC)cc4cc[n+]3c(C)c2cc1OC
Reply: No

Ask: Same question, O=c1c(O)c(-c2ccc(O)c(O)c2)oc2cc(O)ccc12 this time
Reply: No

Ask: NCCCC(N)CC(=O)NCC1NC(=O)C(CO)NC(=O)C(N)CNC(=O)C(C2CCN=C(N)N2)NC(=O)/C(=C\NC(N)=O)NC1=O (stereo not drawn) (H-[Dap]S[Dap](ξβ3hOrn)[ΔAla(E,3-NHCONH2)][X2]; lactam 1-C; configuration not given here) ?
Reply: No

Ask: Same question, NCC1OC(OC2C(CO)OC(OC3C(O)C(N)CC(N)C3OC3OC(CO)C(O)CC3N)C2O)C(N)C(O)C1OC1OC(CO)C(O)C(O)C1O (stereo unspecified) this time
Reply: No

Ask: Record: CCCc1nc2c(C)cc(-c3nc4ccccc4n3C)cc2n1Cc1ccc(-c2ccccc2C(=O)O)cc1
Reply: No

Ask: Same question for NC(N)=NC(N)=Nc1ccccc1 please.
Reply: No

Ask: Quick one: CN[C@@H]1[C@@H](O[C@H]2O[C@H](CO)[C@@H](N)[C@H](O)[C@H]2O)O[C@H]2C[C@@H](N)[C@H](O[C@H]3[C@H](O)[C@@H](O)[C@H](N)C[C@@H]3N)O[C@@H]2[C@@H]1O
Reply: No

These measurements were taken from PubChem BioAssay AID1159580.
